# credit: PubChem BioAssay AID720504

Form field: max response, negative = inhibition (one value per entry).
# TARGET_OF_ASSAY: Serine/threonine-protein kinase PLK1 (Homo sapiens)
# ASSAY_NAME: qHTS for Inhibitors of PLK1-PDB (polo-like kinase 1 - polo-box domain): Primary Screen; further: series mostly up to about 57 µM; on the % scale 0 is the no-effect control and ±100 the full control effect; nearly all actives have a fitted effect of over 65% in size
# CONDITIONS: Plk1 PBD binding of FITC phosphopeptide, fluorescence polarization
Hit rate of the full screen: of about 360,000 compounds, about 10,000 (2.8%) were called active. Another 4% or so got no clear call; they are omitted. What follows is part of a selection rich in actives, with near analogues and random picks from the rest.
Please give a number only; it is taken to be in %.

Solved cases below.
Cc1nn(-c2ccccc2)c(Cl)c1/C=C/C(=O)c1ccc(O)cc1: -17.2
CCc1nc2ccc(C(=O)N(C)Cc3ccco3)cn2c1N(C)C(=O)Cc1ccccc1: -2.7
CC1=C(C(=O)N(C(C)C)C(C)C)CC(CC(=O)NCCCCc2ccccc2)C(=O)N1CCC1=CCCCC1 (stereo not given): 1.49
CC(C)Oc1cc(F)ccc1-c1cc(C(=O)Nc2ccc(F)cc2)[nH]n1: -4.13

Entry Cc1cc(C(=O)N2CCCC2(C)C(=O)O)c(C)o1 (stereo not given) , system Serine/threonine-protein kinase PLK1 (Homo sapiens): what max response, negative = inhibition was measured?
-5.24
